- Measured Target: PARP7 (Homo sapiens)
- Construct: purchased BPS 80527
- Sequence (Q7Z3E1 1-657): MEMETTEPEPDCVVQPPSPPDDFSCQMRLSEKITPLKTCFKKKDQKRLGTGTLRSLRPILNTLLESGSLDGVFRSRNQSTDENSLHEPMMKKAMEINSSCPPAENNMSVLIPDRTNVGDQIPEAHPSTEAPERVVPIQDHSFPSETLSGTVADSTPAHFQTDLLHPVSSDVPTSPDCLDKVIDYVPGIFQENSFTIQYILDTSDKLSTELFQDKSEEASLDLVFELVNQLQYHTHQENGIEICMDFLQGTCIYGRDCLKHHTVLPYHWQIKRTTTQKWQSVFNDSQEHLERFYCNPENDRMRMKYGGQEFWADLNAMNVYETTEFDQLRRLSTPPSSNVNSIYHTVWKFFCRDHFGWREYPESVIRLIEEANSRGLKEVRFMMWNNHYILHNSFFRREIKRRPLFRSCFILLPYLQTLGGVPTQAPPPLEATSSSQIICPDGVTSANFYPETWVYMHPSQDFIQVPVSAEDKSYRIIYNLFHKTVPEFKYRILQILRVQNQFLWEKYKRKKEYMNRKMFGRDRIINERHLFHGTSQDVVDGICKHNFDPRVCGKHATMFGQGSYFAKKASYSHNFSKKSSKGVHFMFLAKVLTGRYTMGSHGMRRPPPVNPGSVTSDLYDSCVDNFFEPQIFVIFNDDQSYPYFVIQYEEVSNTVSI
- Assay Text: PARP7 TR-FRET binding inhibition (displacement of probe RBN011147)
- Experimental Context: TR-FRET, Biotin-labeled probe RBN011147; read-out: PARP7 binding inhibition IC50
Readout Kind: IC50

## Task Tell me measured IC50 for CCOc1cnc(-c2ccc(C(=O)NCCCC(C)Nc3cn[nH]c(=O)c3C(F)(F)F)cc2)s1 (centres unmarked) [Example 40] please.
## Result 10 to 30 nM

## Task Item Cc1c(CCC(=O)Nc2ncc(-c3ncc(C(F)(F)F)cn3)cc2F)c[nH]c(=O)c1C(F)(F)F [Example 76] : provide IC50
## Result 10 to 30 nM

## Task Give recorded IC50. O=C(NCCCC(Nc1cn[nH]c(=O)c1C(F)(F)F)C(=O)N1CCOCC1)c1cnc(-c2ncc(C(F)(F)F)cn2)cn1 (centres unmarked) [Example 90]
## Result 30 to 100 nM

## Task Look up and state reported IC50 for Cc1nc(-c2ccc(C(=O)NCCCC(C)Nc3cn[nH]c(=O)c3C(F)(F)F)cc2)sc1C (centres unmarked) [Example 189]
## Result 30 to 100 nM

## Task State its IC50: Cc1c(CCC(=O)Nc2ccc(-c3ncc(C(F)(F)F)cn3)cc2F)c[nH]c(=O)c1C(F)(F)F [Example 53]
## Result 30 to 100 nM

## Task Look up IC50 of CC(CCCNC(=O)c1ccc(-c2ncc(N(C)C3CC3)s2)cc1)Nc1cn[nH]c(=O)c1C(F)(F)F (centres unmarked) [Example 56] and report it.
## Result < 10 nM

## Task Report measured IC50; entry is CC(COCc1cc(-c2cnc(C(F)(F)F)nc2)sn1)Nc1cn[nH]c(=O)c1C(F)(F)F (centres unmarked) [Example 251]
## Result > 100 nM

## Task For the compound Cc1cccc(NC(=O)[C@@H](CCCNC(=O)c2ccc(-c3ncc(C(F)(F)F)s3)cc2)Nc2cn[nH]c(=O)c2C(F)(F)F)n1 [Example 257] , give its reported IC50.
## Result < 10 nM

## Task Name the recorded IC50 of the compound listed here: CC(CCCNC(=O)c1ncc(-n2cc(C(F)(F)F)cn2)cc1F)Nc1cn[nH]c(=O)c1C(F)(F)F (centres unmarked) [Example 183]
## Result < 10 nM

## Task Please supply the value of reported IC50 for the item O=C(NCCCC(Nc1cn[nH]c(=O)c1C(F)(F)F)C1CC1)c1cnc(-c2ncc(C(F)(F)F)s2)cn1 (centres unmarked) [Example 54]
## Result 10 to 30 nM

## Task Give recorded IC50. CC(CCCNC(=O)c1cnc(-c2ncc(C(F)(F)F)s2)cn1)Nc1cn[nH]c(=O)c1C(F)(F)F (centres unmarked) [Example 26]
## Result < 10 nM

## Task Report IC50, nothing else, for this compound: CC(C)(C)NC(=O)[C@@H](CCCNC(=O)c1ccc(-c2ncc(C(F)(F)F)s2)cc1)Nc1cn[nH]c(=O)c1C(F)(F)F [Example 221]
## Result < 10 nM

## Task Respond only with IC50 recorded for C[C@H]1CCN1C(=O)[C@@H](CCCNC(=O)c1ccc(-c2ncc(C(F)(F)F)s2)cc1)Nc1cn[nH]c(=O)c1C(F)(F)F [Example 240]
## Result 10 to 30 nM

## Task Give IC50 for Cc1cc(NC(C)CCCN(C)C(=O)c2ccc(-c3ncc(C(F)(F)F)cn3)cc2O)c(C#N)c(=O)[nH]1 (centres unmarked) [Example 33]
## Result > 100 nM
